- System: BDF1 mice, P388 leukemia ip, median survival T/C
- assay: NCI In Vivo Anticancer Drug Screen. Data for tumor model P388 Leukemia (intraperitoneal) in B6D2F1 (BDF1) mice
- condition.description: endpoint: median survival time; dose: 400.0 mg/kg/injection; schedule: Q04DX003 (ip); vehicle: saline with Tween-80; higher = longer survival
Toxic doses and inconclusive results are not listed.
I'd be grateful if you could share measured T/C for these entries.

Below are worked cases with known answers.
molecule: CC(=O)Cc1ccc(C(=O)C(C)Cc2ccc(C(C)=O)cc2)cc1 (stereo unspecified)
T/C: 90 % of control
//
molecule: O=[N+]([O-])c1ccc(N2CCN(c3cccc(C(F)(F)F)c3)CC2)c([N+](=O)[O-])c1
T/C: 100 % of control
//
molecule: O=C1c2ccccc2C(=O)N1c1c2ccccc2cc2ccccc12
T/C: 100 % of control
//
molecule: CSc1cccc(NC(C)=O)c1
T/C: 109 % of control

Provide T/C for all items below, preserving their order.
1. O=C1c2cc(Cl)ccc2-c2c(NC(=O)C(Cl)Cl)cc(Cl)cc21
2. Cc1ccc(NC(=O)Nc2ccccc2F)cc1NC(=O)Nc1ccccc1F
3. CCOC(=O)NC12c3ccccc3C(c3ccccc31)C(C(=O)O)C2C(=O)O (stereo unspecified)
4. Cc1ccc(S(=O)(=O)CC([Se]C#N)c2ccccc2)cc1 (stereo unspecified)
5. C(=Nc1ccc(-c2ccccc2)cc1)c1ccccc1
6. OCCN(CCO)c1cc(O)cc(O)c1

1: 104 % of control; 2: 109 % of control; 3: 118 % of control; 4: 89 % of control; 5: 100 % of control; 6: 117 % of control

Please report the recorded T/C for "CCCCCCC/C=C\c1cnc2nc(N)nc(N)c2n1" . 92 % of control

* * *

I'd be grateful if you could share measured T/C for these entries.
- Test system: BDF1 mice, P388 leukemia ip, median survival T/C
- assay: NCI In Vivo Anticancer Drug Screen. Data for tumor model P388 Leukemia (intraperitoneal) in B6D2F1 (BDF1) mice
- condition.description: endpoint: median survival time; dose: 50.0 mg/kg/injection; schedule: Q04DX003 (ip); vehicle: Klucel (hydroxypropylcellulose) (HPC); higher = longer survival
Toxic doses and inconclusive results are not listed.

Below are worked cases with known answers.
compound: c1ccc(Nc2ccc(Nc3ccccc3)cc2)cc1
reported.result: 118 % of control
--
compound: C[C@]12CCC(=O)C=C1CC[C@@H]1[C@@H]2C(=O)C[C@]2(C)C3=CC(=O)O[C@H]3C[C@@H]12
reported.result: 122 % of control
--
compound: O=C1CCCC(=O)C1C(C[N+](=O)[O-])c1ccccc1 (configuration not stated)
reported.result: 104 % of control
--
compound: CC1C(=O)OC(C)(C)OC1=O
reported.result: 123 % of control
--
compound: COc1cccc2c1C(=O)c1c(OC)cccc1C2=O
reported.result: 97 % of control
--
compound: C=CCOCCC(=O)OCC=C
reported.result: 104 % of control

Provide T/C for all items below, preserving their order.
1. CCCCCCCCCCCCCCCCCCNC(=S)N/N=C/c1ccc(Cl)cc1Cl
2. C[N+](C)(C)c1ccc(/C=N\NC(=O)c2ccccc2)cc1
3. COc1ccc(N=O)c(O)c1
4. CCCCCCCCCCCCCCCCCC[n+]1cccc(C(=O)N2CCOCC2)c1
5. CCC(=O)Nc1cc(Cl)ccc1C

105 % of control
95 % of control
110 % of control
109 % of control
118 % of control

Please report the recorded T/C for "O=C(NNc1ccccc1)c1ccccc1" . 109 % of control

* * *

- Test system: BDF1 mice, P388 leukemia ip, median survival T/C
- assay: NCI In Vivo Anticancer Drug Screen. Data for tumor model P388 Leukemia (intraperitoneal) in B6D2F1 (BDF1) mice
- condition.description: endpoint: median survival time; dose: 100.0 mg/kg/injection; schedule: Q01DX009 (ip); vehicle: saline; higher = longer survival
Inconclusive results and toxic doses are left out.
I'd be grateful if you could share measured T/C for these entries.

Below are worked cases with known answers.
compound: S=c1nc[nH]c2nc[nH]c12.[Ag]
measured.endpoint: T/C
reported.result: 100 % of control

compound: CCOC1=NCCCCC1
measured.endpoint: T/C
reported.result: 95 % of control

compound: COP1(=O)OCC2OC(n3cnc4c(N)ncnc43)C(O)C2O1 (stereo unspecified)
measured.endpoint: T/C
reported.result: 88 % of control

compound: CNCCN(C)CCN(C)Cc1ccc(OC)cc1
measured.endpoint: T/C
reported.result: 101 % of control

compound: Cc1nccnc1N
measured.endpoint: T/C
reported.result: 105 % of control

compound: c1ccc(-c2cscc2-c2ccccc2)cc1
measured.endpoint: T/C
reported.result: 93 % of control

compound: CC1(C)SC2C(NC(=O)Cc3ccccc3)C(=O)N2C1C(=O)O (stereo unspecified)
measured.endpoint: T/C
reported.result: 90 % of control

compound: CC(=O)c1c(C)cc(C(C)(C)C)cc1C
measured.endpoint: T/C
reported.result: 109 % of control

compound: CCC(CO)N1CNC(=S)NC1 (stereo unspecified)
measured.endpoint: T/C
reported.result: 92 % of control

compound: NC(Cc1ccc(O)c(I)c1)C(=O)O (stereo unspecified)
measured.endpoint: T/C
reported.result: 120 % of control

Provide T/C for all items below, preserving their order.
1. CCOS(C)(=O)=O
2. O=C(Oc1ccc([N+](=O)[O-])cc1)c1ccc(C[n+]2ccccc2)cc1
3. C=CCOCCO
4. CCOC(=O)/C=C/c1c[nH]c(=O)[nH]c1=O

1: 100 % of control; 2: 89 % of control; 3: 112 % of control; 4: 101 % of control

Provide T/C for all items below, preserving their order.
1. C1CC[N-]CC1.C1CC[N-]CC1.O=C(O)C(=O)O.[Pt+2]
2. COc1ccc(/C=C/C(=O)c2ccc3cc(OC)c(OC)cc3c2)cc1OC
3. CC(=O)OCc1cc2cc(O)ccc2nc1C
4. CCC(/C=C/C(C)C1CCC2C3CC=C4CC(O)CCC4(C)C3CCC12C)C(C)C (stereo unspecified) (tested in a mixture with another compound)

1. 120 % of control
2. 87 % of control
3. 101 % of control
4. 100 % of control

Provide T/C for all items below, preserving their order.
1. CCNC(C)(C)C(Cl)c1cccs1 (stereo unspecified)
2. C1CCC(=[N+]2CCCC2)CC1

1. 114 % of control
2. 100 % of control

Provide T/C for all items below, preserving their order.
1. CNC1C(OC2C(OC3C(O)C(O)C(O)C(O)C3O)OC(C)C2(O)CO)OC(CO)C(O)C1O (stereo unspecified) (tested in a mixture with another compound)
2. BrC1C2C=CCC1CC2 (stereo unspecified)
3. C=CCOP(=O)(N1CC1C)N1CC1C (stereo unspecified)

["100 % of control", "100 % of control", "117 % of control"]

Provide T/C for all items below, preserving their order.
1. O=C(Nc1ccc(Nc2ccncc2)cc1)c1ccc(Nc2ccnc3ccc([N+](=O)[O-])cc23)cc1[N+](=O)[O-]
2. O=C1N(c2ccccc2)CCC12CCNCC2
3. Cc1ccc(S(=O)(=O)O)cc1

1: 91 % of control; 2: 94 % of control; 3: 108 % of control

* * *

- System: BDF1 mice, P388 leukemia ip, median survival T/C
- assay: NCI In Vivo Anticancer Drug Screen. Data for tumor model P388 Leukemia (intraperitoneal) in B6D2F1 (BDF1) mice
- condition.description: endpoint: median survival time; dose: 150.0 mg/kg/injection; schedule: Q01DX009 (ip); vehicle: saline with Tween-80; higher = longer survival
Toxic doses and inconclusive results are not listed.
I'd be grateful if you could share measured T/C for these entries.

compound: O=C(O)CCc1ccccc1
measured.endpoint: T/C
reported.result: 109 % of control

compound: O=C(O)C(=O)c1ccc(-c2ccccc2)cc1
measured.endpoint: T/C
reported.result: 110 % of control

compound: Cc1ccc(-c2nc3cc(Cl)ccc3c(=O)o2)cc1
measured.endpoint: T/C
reported.result: 109 % of control

Provide T/C for all items below, preserving their order.
1. CCOC(=O)c1c(C(=O)OCC)c(C)n(NC(=S)NC)c1C
2. CC(C)CNC(=S)N/N=C\C=N/NC(=S)NCC(C)C
3. CC(=O)OCC(OC(C)=O)C(OC(C)=O)C(OC(C)=O)C1COC(C)(C)O1 (stereo unspecified)

1: 89 % of control; 2: 91 % of control; 3: 86 % of control

* * *

- System: BDF1 mice, P388 leukemia ip, median survival T/C
- assay: NCI In Vivo Anticancer Drug Screen. Data for tumor model P388 Leukemia (intraperitoneal) in B6D2F1 (BDF1) mice
- condition.description: endpoint: median survival time; dose: 400.0 mg/kg/injection; schedule: Q04DX003 (ip); vehicle: saline sonified
Toxic doses and inconclusive results are not listed. Rule for the calls: active = survival T/C of 150% or more; inactive = T/C below 125% in these data.
Response enum: t for active, f for inactive

molecule: O=C(c1ccccc1)C1OC1c1ccc([N+](=O)[O-])cc1 (configuration not stated)
cat: f
//
molecule: C/C(=C/B1OCCO1)CCl
cat: f
//
molecule: COc1cc(C=Nc2cc(Br)cc(Br)c2)ccc1N(CCCl)CCCl
cat: f
//
molecule: c1ccc2nc(-c3cc4ccccc4s3)ccc2c1
cat: f
//
molecule: C[N+](C)(CC(=O)Nc1ccc(Cl)c(C(F)(F)F)c1)CC(=O)c1ccc(Cl)c(Cl)c1
cat: f
//
molecule: C[C@H](CCC(=O)O)[C@H]1CC[C@H]2[C@@H]3[C@H](O)C[C@@H]4C[C@H](O)CC[C@]4(C)[C@H]3C[C@H](O)[C@]12C (tested in a mixture with another compound)
cat: t

Let us examine a further case.
Could you kindly confirm the outcome this assay logged for "CC(=O)Nc1ccc(Cl)c(Cl)c1" ? f
